test: Time taken by the compound to reach maximum concentration.; assay type: ADME
readout: Tmax (min)

1. C[C@@H](O)[C@H]1C(=O)N2C(C(=O)O)=C(S[C@@H]3CN[C@H](C(=O)N(C)C)C3)[C@H](C)[C@H]12: 12.6

* * *

// reported Stability for each item listed
biological target: Dipeptidase 1 (Sus scrofa) (UniProt P22412); experiment: Compound was evaluated for relative rate of hydrolysis to imipenem by partially purified porcine renal Dehydropeptidase-1; set-up: scale not given: the % may be the effect or the level left
Sequence (P22412 whole entry): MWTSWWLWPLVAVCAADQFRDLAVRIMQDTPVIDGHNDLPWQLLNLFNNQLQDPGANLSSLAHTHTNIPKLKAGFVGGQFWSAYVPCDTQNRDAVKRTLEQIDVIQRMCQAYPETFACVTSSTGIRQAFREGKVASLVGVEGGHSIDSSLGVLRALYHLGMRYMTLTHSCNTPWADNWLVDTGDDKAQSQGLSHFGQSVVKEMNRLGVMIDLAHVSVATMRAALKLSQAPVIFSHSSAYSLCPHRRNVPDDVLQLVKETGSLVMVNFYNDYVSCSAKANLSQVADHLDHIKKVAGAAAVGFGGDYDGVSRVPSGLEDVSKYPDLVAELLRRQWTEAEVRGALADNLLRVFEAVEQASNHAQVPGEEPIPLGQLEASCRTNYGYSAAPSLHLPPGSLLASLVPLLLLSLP
readout: Stability (%)

1) C[C@@H](O)[C@H]1C(=O)N2C(C(=O)O)=C(S[C@@H]3CN[C@H](C(=O)N(C)C)C3)[C@H](C)[C@H]12: 3200
2) C[C@@H](O)[C@H]1C(=O)N2C(C(=O)O)=C(S[C@@H]3CN[C@H](C(=O)NCCC(N)=O)C3)[C@H](C)[C@H]12: 2600
3) C[C@@H](O)[C@H]1C(=O)N2C(C(=O)O)=C(S[C@@H]3CN[C@H](C(=O)NCCS(N)(=O)=O)C3)[C@H](C)[C@H]12: 2400
4) C[C@@H](O)[C@H]1C(=O)N2C(C(=O)O)=C(SCCNC=N)C[C@H]12 [IMIPENEM ANHYDROUS]: 10000

* * *

system: Escherichia coli; test: microbe, parasite or virus in culture; assay type: functional
Description: Antibacterial activity against Escherichia coli 1507E
readout: MIC (µg/mL)

1) C[C@@H](O)[C@H]1C(=O)N2C(C(=O)O)=C(S[C@@H]3CN[C@H](C(=O)NCCS(=O)(=O)NCCO)C3)[C@H](C)[C@H]12: 0.025
2) C[C@@H](O)[C@H]1C(=O)N2C(C(=O)O)=C(S[C@@H]3CN[C@H](C(=O)NCCC(=O)NCCO)C3)[C@H](C)[C@H]12: 0.049
3) C[C@@H](O)[C@H]1C(=O)N2C(C(=O)O)=C(S[C@@H]3CN[C@H](C(=O)N(C)C)C3)[C@H](C)[C@H]12 [MEROPENEM]: 0.025
4) C[C@@H](O)[C@H]1C(=O)N2C(C(=O)O)=C(S[C@@H]3CN[C@H](C(=O)NCCS(=O)(=O)N(C)CCO)C3)[C@H](C)[C@H]12: 0.025

* * *

experiment: Antibacterial activity against Enterobacter cloacae 1321E; type: functional
readout: MIC

1) CNS(=O)(=O)CCNC(=O)[C@@H]1C[C@H](SC2=C(C(=O)O)N3C(=O)[C@H]([C@@H](C)O)[C@H]3[C@H]2C)CN1: 0.025 µg/mL
2) COC(=O)CCNC(=O)[C@@H]1C[C@H](SC2=C(C(=O)O)N3C(=O)[C@H]([C@@H](C)O)[C@H]3[C@H]2C)CN1: 0.025 µg/mL
3) C=CCNS(=O)(=O)CCNC(=O)[C@@H]1C[C@H](SC2=C(C(=O)O)N3C(=O)[C@H]([C@@H](C)O)[C@H]3[C@H]2C)CN1: 0.025 µg/mL

* * *

experiment: Antibacterial activity against Enterobacter cloacae 1321E; format: functional
readout: MIC

1) C[C@@H](O)[C@H]1C(=O)N2C(C(=O)O)=C(S[C@@H]3CN[C@H](C(=O)N(C)C)C3)[C@H](C)[C@H]12: 0.025 µg/mL
2) C[C@@H](O)[C@H]1C(=O)N2C(C(=O)O)=C(S[C@@H]3CN[C@H](C(=O)NCCC(=O)NCCO)C3)[C@H](C)[C@H]12: 0.025 µg/mL
3) C[C@@H](O)[C@H]1C(=O)N2C(C(=O)O)=C(S[C@@H]3CN[C@H](C(=O)NCCC(=O)N(C)C)C3)[C@H](C)[C@H]12: 0.025 µg/mL
4) C[C@@H](O)[C@H]1C(=O)N2C(C(=O)O)=C(SCCNC=N)C[C@H]12 [IMIPENEM ANHYDROUS]: 0.195 µg/mL
